This collection of values is drawn from patent US20120316105A1.

Items are presented alongside their recorded EC-1 MIC.
# System: EC-1, mouse virulent strain of Escherichia coli
# Format: cell-based
# ASSAY_SETUP: E. coli EC-1; overnight incubation, lower of duplicate values; trifluoroacetate salt (Example 1 and PMB sulfate)
Bridge positions count the residues as written; N and C are the ends. Square brackets hold non-standard residues; d marks the D form. Peptide text beside a SMILES is read from it. * marks the point of attachment. X25 = O=C(c1ccc(Cl)c(-c2ccccn2)c1)*; X39 = COc1ccc(C(=O)*)cc1-c1ccccc1; X1 = CC[C@H](C)CCCCC(=O)*; Dab = NCC[C@H](N)C(=O)O; Dap = NC[C@H](N)C(=O)O
Express it in µg/mL; write the number only.

Consider the reported EC-1 MIC for these compounds:
COMPOUND	ASSAYED_TARGET	PROPERTY_NAME	VAL
CC(C)C[C@@H]1NC(=O)[C@@H](Cc2ccccc2)NC(=O)[C@H](CCN)NC(=O)[C@@H](NC(=O)[C@H](CN)NC(=O)[C@@H](NC(=O)[C@H](CCN)NC(=O)c2ccc(Cl)c(-c3ccccn3)c2)[C@@H](C)O)CCNC(=O)[C@H]([C@@H](C)O)NC(=O)[C@H](CCN)NC(=O)[C@H](CCN)NC1=O [Example 28] (X25-[Dab]T[Dap][Dab][Dab][dF]L[Dab][Dab]T; lactam 4-C)	EC-1, mouse virulent strain of Escherichia coli	EC-1 MIC	0.25
CC[C@H](C)CCCCC(=O)N[C@@H](CCN)C(=O)N[C@H](C(=O)N[C@@H](CCN)C(=O)N[C@H]1CCNC(=O)[C@H]([C@@H](C)O)NC(=O)[C@H](CCN)NC(=O)[C@H](CCN)NC(=O)[C@H](CC(C)C)NC(=O)[C@@H](Cc2ccccc2)NC(=O)[C@H](CCN)NC1=O)[C@@H](C)O [PMB1, polymyxin B1, reference compound] (X1-[Dab]T[Dab][Dab][Dab][dF]L[Dab][Dab]T; lactam 4-C)	EC-1, mouse virulent strain of Escherichia coli	EC-1 MIC	0.125

// query Name the recorded EC-1 MIC of the compound listed here: COc1ccc(C(=O)N[C@@H](CCN)C(=O)N[C@H](C(=O)N[C@@H](CN)C(=O)N[C@H]2CCNC(=O)[C@H]([C@@H](C)O)NC(=O)[C@H](CCN)NC(=O)[C@H](CCN)NC(=O)[C@H](CC(C)C)NC(=O)[C@@H](Cc3ccccc3)NC(=O)[C@H](CCN)NC2=O)[C@@H](C)O)cc1-c1ccccc1 [Example 16] (X39-[Dab]T[Dap][Dab][Dab][dF]L[Dab][Dab]T; lactam 4-C)
// result 0.25

----------
molecules and their reported EC-1 MIC
# Test system: EC-1, mouse virulent strain of Escherichia coli
# Format: cell-based
# ASSAY_SETUP: E. coli EC-1; overnight incubation, lower of duplicate values; trifluoroacetate salt (Example 1 and PMB sulfate)
Bridge positions count the residues as written; N and C are the ends. Square brackets hold non-standard residues; d marks the D form. Peptide text beside a SMILES is read from it. * marks the point of attachment. X33 = N#Cc1ccc(-c2cc(C(=O)*)ccc2Cl)cc1; 2Naphthoyl = O=C(c1ccc2ccccc2c1)*; X16 = O=C(c1ccc(-c2ccccc2)nc1)*; Dab = NCC[C@H](N)C(=O)O; Dap = NC[C@H](N)C(=O)O
Number in mg/L, nothing else.

Answered cases to consult:
MOLECULE	EC-1 MIC / mg/L
CC(C)C[C@@H]1NC(=O)[C@@H](Cc2ccccc2)NC(=O)[C@H](CCN)NC(=O)[C@@H](NC(=O)[C@H](CN)NC(=O)[C@@H](NC(=O)[C@H](CCN)NC(=O)c2ccc(-c3ccccc3)nc2)[C@@H](C)O)CCNC(=O)[C@H]([C@@H](C)O)NC(=O)[C@H](CCN)NC(=O)[C@H](CCN)NC1=O [Example 27] (X16-[Dab]T[Dap][Dab][Dab][dF]L[Dab][Dab]T; lactam 4-C)	0.125
CC(C)C[C@@H]1NC(=O)[C@@H](Cc2ccccc2)NC(=O)[C@H](CCN)NC(=O)[C@@H](NC(=O)[C@H](CN)NC(=O)[C@@H](NC(=O)[C@H](CCN)NC(=O)c2ccc3ccccc3c2)[C@@H](C)O)CCNC(=O)[C@H]([C@@H](C)O)NC(=O)[C@H](CCN)NC(=O)[C@H](CCN)NC1=O [Example 6] (2Naphthoyl-[Dab]T[Dap][Dab][Dab][dF]L[Dab][Dab]T; lactam 4-C)	0.125

Let us move to another entry and its EC-1 MIC.
// query Could you please provide reported EC-1 MIC for CC(C)C[C@@H]1NC(=O)[C@@H](Cc2ccccc2)NC(=O)[C@H](CCN)NC(=O)[C@@H](NC(=O)[C@H](CN)NC(=O)[C@@H](NC(=O)[C@H](CCN)NC(=O)c2ccc(Cl)c(-c3ccc(C#N)cc3)c2)[C@@H](C)O)CCNC(=O)[C@H]([C@@H](C)O)NC(=O)[C@H](CCN)NC(=O)[C@H](CCN)NC1=O [Example 39] (X33-[Dab]T[Dap][Dab][Dab][dF]L[Dab][Dab]T; lactam 4-C) ? Thanks!
// result 0.5
